system.under.test: human Edg-1 receptor (Homo sapiens)
Construct: expressed in transfected cells; membrane preparation
Sequence (P21453 whole entry): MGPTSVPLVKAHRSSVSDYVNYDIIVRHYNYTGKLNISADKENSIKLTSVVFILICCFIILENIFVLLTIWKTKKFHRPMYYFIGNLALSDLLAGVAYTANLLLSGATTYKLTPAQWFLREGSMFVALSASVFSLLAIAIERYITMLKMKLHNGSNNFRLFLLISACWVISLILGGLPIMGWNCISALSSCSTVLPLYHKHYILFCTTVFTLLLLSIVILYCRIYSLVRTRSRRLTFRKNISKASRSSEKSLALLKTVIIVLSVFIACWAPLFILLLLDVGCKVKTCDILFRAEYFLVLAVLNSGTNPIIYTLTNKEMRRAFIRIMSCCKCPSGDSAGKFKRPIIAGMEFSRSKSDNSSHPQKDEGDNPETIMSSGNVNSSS
experiment.summary: GTP-γ-S assay using human Edg-1 receptors (scintillation proximity assay, membrane preparation from CHO Flp-In cell line)
Assay type: biochemical
experimental.setup: example compound at 10 μM; relative to 10 μM S1P; GTP-γ-S SPA, human Edg-1 membranes
readout.label: % Activation (Edg-1 receptor activation in percent of the activation by 10 μM S1P) (%)

Below: 3 compounds and their reported % Activation (Edg-1 receptor activation in percent of the activation by 10 μM S1P).
| compound | assay.result |
| --- | --- |
| CCOc1nc(Cc2ccc(Cl)cc2)nc2oc(-c3cc(C)c(OCC(=O)O)c(C)c3)nc12 [Example 253] | 79 |
| CCCOc1nc(CN2CCOCC2)nc2oc(-c3ccc(Cl)c(F)c3)nc12 [Example 89] | 107 |
| CCCCOc1nc(Cc2ccc(Cl)cc2)nc2oc(-c3cccs3)nc12 [Example 115] | 33 |

I = CCCOc1nc(CN2CC(C(=O)OC)C2)nc2oc(-c3cccc(F)c3)nc12 [Example 52]
II = CCCOc1nc(CN2CCC(F)(F)CC2)nc2oc(-c3cccc(F)c3)nc12 [Example 33]
Q. Between the entries labeled I and II , whose measured % Activation (Edg-1 receptor activation in percent of the activation by 10 μM S1P) is lower? Give the label under which the chosen entry appears.
A. I
(I: 35%, II: 93%)

====

system.under.test: human Edg-1 receptor (Homo sapiens)
Construct: expressed in transfected cells; membrane preparation
experiment.summary: GTP-γ-S assay using human Edg-1 receptors (scintillation proximity assay, membrane preparation from CHO Flp-In cell line)
Assay type: biochemical
experimental.setup: example compound at 10 μM; relative to 10 μM S1P; GTP-γ-S SPA, human Edg-1 membranes
readout.label: % Activation (Edg-1 receptor activation in percent of the activation by 10 μM S1P) (%)

Answered cases to consult:
| compound | system.under.test | assay.result |
| --- | --- | --- |
| CCCOc1nc(CN2C(C(=O)O)CCS2(=O)=O)nc2oc(-c3cccc(F)c3)nc12 (centres unmarked) | human Edg-1 receptor (Homo sapiens) | 41 |
| CCCOc1nc(Cc2ccc(Cl)cc2)nc2oc(-c3cc(C)c(OCC(O)CNC4CCN(CC(C)C)CC4)c(C)c3)nc12 (centres unmarked) | human Edg-1 receptor (Homo sapiens) | 67 |
| CCCOc1nc(CN2CCC(F)(F)CC2)nc2oc(-c3ccc(Cl)c(Cl)c3)nc12 | human Edg-1 receptor (Homo sapiens) | 111 |
| CCCOc1nc(CN2CCCOCC2)nc2oc(-c3ccccc3)nc12 | human Edg-1 receptor (Homo sapiens) | 122 |
| CCOc1nc(Cc2ccc(Cl)cc2)nc2oc(-c3cc(C)c(OCCCS(=O)(=O)c4nnc(C5CC5)[nH]4)c(C)c3)nc12 | human Edg-1 receptor (Homo sapiens) | 120 |
| CCCOc1nc(CN2CCC(F)(F)CC2)nc2oc(-c3cc(F)ccc3Cl)nc12 | human Edg-1 receptor (Homo sapiens) | 95 |

1 = CCCOc1nc(CN2CCCOCC2)nc2oc(-c3cccc(F)c3)nc12
2 = CCCOc1nc(Cn2cnc(C(=O)OC)c2)nc2oc(-c3cccc(F)c3)nc12
Q. Just tell me: smaller % Activation (Edg-1 receptor activation in percent of the activation by 10 μM S1P) value, 1 or 2 ? Use the label to indicate which entry you chose.
A. 2
